Listed here are molecules together with their documented DC50.
Target Of Assay: SMARCA4 (Homo sapiens, UniProt P51532)
Construct: SMARCA2/SMARCA4 protein degradation selectivity in MV4-11 cells; endogenous in cells; host or cells: MV4-11
Sequence (P51532 whole entry): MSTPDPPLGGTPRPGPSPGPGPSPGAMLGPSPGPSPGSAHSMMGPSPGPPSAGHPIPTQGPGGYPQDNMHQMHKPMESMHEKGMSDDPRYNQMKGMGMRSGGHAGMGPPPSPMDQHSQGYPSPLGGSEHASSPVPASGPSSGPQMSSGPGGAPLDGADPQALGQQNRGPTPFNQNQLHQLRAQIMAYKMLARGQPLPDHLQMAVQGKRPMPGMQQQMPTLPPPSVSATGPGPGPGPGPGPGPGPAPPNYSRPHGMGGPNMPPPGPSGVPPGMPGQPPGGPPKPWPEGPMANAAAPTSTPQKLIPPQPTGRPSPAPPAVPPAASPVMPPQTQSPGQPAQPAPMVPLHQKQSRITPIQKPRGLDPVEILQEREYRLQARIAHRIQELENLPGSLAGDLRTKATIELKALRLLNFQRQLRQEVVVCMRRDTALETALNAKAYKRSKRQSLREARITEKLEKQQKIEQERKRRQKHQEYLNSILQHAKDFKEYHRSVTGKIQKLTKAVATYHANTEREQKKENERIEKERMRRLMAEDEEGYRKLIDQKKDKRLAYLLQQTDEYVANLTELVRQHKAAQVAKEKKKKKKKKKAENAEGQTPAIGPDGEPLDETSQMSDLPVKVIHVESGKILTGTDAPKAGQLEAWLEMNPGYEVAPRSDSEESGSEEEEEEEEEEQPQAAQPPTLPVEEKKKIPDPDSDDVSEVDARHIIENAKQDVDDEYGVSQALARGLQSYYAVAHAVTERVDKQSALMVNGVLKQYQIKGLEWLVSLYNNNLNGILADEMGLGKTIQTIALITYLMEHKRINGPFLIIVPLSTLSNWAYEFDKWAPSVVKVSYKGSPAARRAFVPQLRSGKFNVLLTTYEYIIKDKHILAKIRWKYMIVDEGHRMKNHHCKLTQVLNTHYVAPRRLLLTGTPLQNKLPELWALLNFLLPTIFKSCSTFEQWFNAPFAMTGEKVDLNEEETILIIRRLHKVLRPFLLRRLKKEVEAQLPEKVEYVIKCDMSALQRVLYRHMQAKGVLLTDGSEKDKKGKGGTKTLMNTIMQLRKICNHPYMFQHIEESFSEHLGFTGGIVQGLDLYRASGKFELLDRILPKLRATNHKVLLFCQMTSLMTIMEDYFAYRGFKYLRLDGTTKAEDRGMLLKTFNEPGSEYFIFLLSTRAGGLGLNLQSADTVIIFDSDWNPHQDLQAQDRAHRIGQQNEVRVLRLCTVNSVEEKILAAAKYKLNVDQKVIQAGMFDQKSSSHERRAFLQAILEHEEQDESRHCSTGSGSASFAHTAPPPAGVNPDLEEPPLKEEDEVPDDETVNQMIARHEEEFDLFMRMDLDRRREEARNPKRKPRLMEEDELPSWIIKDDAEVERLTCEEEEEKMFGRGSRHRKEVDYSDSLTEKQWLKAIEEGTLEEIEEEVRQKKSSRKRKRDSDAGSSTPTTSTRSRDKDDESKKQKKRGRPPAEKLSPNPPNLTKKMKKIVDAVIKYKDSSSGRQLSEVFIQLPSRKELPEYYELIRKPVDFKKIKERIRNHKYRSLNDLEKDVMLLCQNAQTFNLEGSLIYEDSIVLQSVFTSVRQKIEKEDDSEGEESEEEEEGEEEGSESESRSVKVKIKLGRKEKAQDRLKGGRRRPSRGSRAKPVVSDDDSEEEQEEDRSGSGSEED
Test Protocol: SMARCA4 Western blot degradation in MV4-11 cells
Assay type: cell-based
Measurement Setup: MV4-11 cells, 24 h; read-out: SMARCA4 MSD MV411 degradation 24 h: Mean external-Abs DC50
Method: Example 11. SMARCA2 and SMARCA4 Western Blot MV4-11 Degradation Cells were seeded into 6-well plates (MV4-11:4×10^6 cells/well/1 ml) and 1 ml of 2× compound solution was added into the well to make the final concentration and the plates were mixed well and incubated for 24 hours (No cytotoxicity was observed). The cell were collected with media and spun at 3000 rpm for 5 minutes. […] The membrane was washed three times with 5 minutes each and lastly the LiCOR was read. […]

[[record]]
smiles_data = "Cc1ncsc1-c1ccc(CNC(=O)[C@@H]2C[C@@H](O)CN2C(=O)[C@@H](OC(=O)N2CC3(CC(N4CCN(c5cnc(N6CCN7c8cc(-c9ccccc9O)nnc8NC[C@H]7C6)nc5)CC4)C3)C2)C(C)(C)C)cc1"
observation_type = "DC50"
result = "1 to 10 nM"


The record that follows has no DC50 shown yet.
Query DC50 for `C#Cc1ccc(CNC(=O)[C@@H]2C[C@@H](O)CN2C(=O)[C@@H](N(C)C(=O)N2CC3(CC(N4CCC(c5cnc(N6CCc7[nH]c8nnc(-c9ccccc9O)cc8c7[C@H]6C)nc5)CC4)C3)C2)C(C)(C)C)cc1`
> 100 nM
